- RUN DESCRIPTION: Stability (hydrolysis)
- Type: physicochemical
PROPERTY LABEL: stability

INSERT INTO assay_data (compound, result) VALUES
  ('CC1CCC2C(C)C(c3ccco3)OC3OC4(C)CCC1C32OO4 (stereo not drawn) [Monomer 17a, 10α-(2''-Furyl)-10-deoxoartemisinin]', 'Hydrolytically stable'),
  ('CC1CCC2C(C)C(c3cccn3C)OC3OC4(C)CCC1C32OO4 (stereo not shown) [Monomer 16a]', 'Hydrolytically stable'),
  ('Cc1ccc([C@@H]2O[C@@H]3O[C@@]4(C)CC[C@H]5[C@H](C)CC[C@@H]([C@H]2C)[C@@]35OO4)o1 [Monomer 17b]', 'Hydrolytically stable');
